Entries and their UI
# System: Rattus norvegicus
# testProtocol: Gastrointestinal toxicity in Wistar rat assessed as ulcerogenic index at 60 mg/kg, po after 6 hrs relative to control
# Type: organism-based
# Set-up: dose 60 mg/kg, route oral
# testSettings: in vivo
// return numeric value only (unit: mm, not printed)

molecule: Cc1cc(O)c(C(=O)/C=C/c2cccc(O)c2)c(C)c1Cl
UI [mm]: 0.4

Prompt line: Give reported UI for COc1ccc(/C=C/C(=O)c2c(O)cc(C)c(Cl)c2C)cc1OC (Rattus norvegicus)
Response line: 0.6

Prompt line: Send back Rattus norvegicus UI of COc1ccc2c(c1)c(CC(=O)O)c(C)n2C(=O)c1ccc(Cl)cc1 only.
Response line: 1.5

Prompt line: # return UI for Cc1cc(O)c(C(=O)/C=C/c2ccccc2)c(C)c1Cl , test system: Rattus norvegicus
Response line: 0.4

Prompt line: Please tell me the measured UI for COc1cc(/C=C/C(=O)c2c(O)cc(C)c(Cl)c2C)cc(OC)c1OC ; system: Rattus norvegicus.
Response line: 0.4

Prompt line: System Rattus norvegicus. Read-out UI. Item COc1cc(/C=C/C(=O)c2c(OC)cc(C)c(Cl)c2C)cc(OC)c1OC . Report value.
Response line: 0.16

Prompt line: Jot down UI (Rattus norvegicus) of Cc1cc2c(c(C)c1Cl)C(=O)CC(c1ccc(N(C)C)cc1)O2 (stereo not given) .
Response line: 0
